- SYSTEM TESTED: TRPV1 (VR1) (Rattus norvegicus)
- Construct: expressed in transfected cells; host or cells: HEK293-TetOFF, expression induced by withdrawing doxycycline
- METHOD NOTES: TRPV1 screening assay (FLIPR, Fluo-4 calcium), capsaicin stimulation
- Format: cell-based
- STATED CONDITIONS: FLIPR, HEK293-TetOFF-TRPV1, capsaicin 50 nM final; read-out: VR1 flipr CAPSAICIN IC50
- Source text: […]
pIC50: −log10 of the molar value.
EXPERIMENTAL READOUT: pIC50

COMPOUND: O=C(Nc1ccc(C(F)(F)F)cn1)N1CCC2(CC1)C(=O)N(c1ccccc1)C2c1ccccc1 (stereo not shown)
EXPERIMENTAL READOUT: pIC50
MEAS VALUE: 6.50

COMPOUND: CC(C)(C)C1CCC(NC(=O)N2CCC3(CC2)C(=O)N(c2ccccc2)C3c2ccccc2)CC1 (single isomer, unassigned)
EXPERIMENTAL READOUT: pIC50
MEAS VALUE: 7.32

COMPOUND: CC(C)(C)c1ccc(NC(=O)N2CCC3(CC2)C(=O)N(c2ccccc2)C3c2ccccc2)cc1 (single isomer, unassigned)
EXPERIMENTAL READOUT: pIC50
MEAS VALUE: 8.05

COMPOUND: CC(C)(C)c1ccc(NC(=O)N2CCC3(CC2)C(=O)N(c2ccccn2)C3c2ccccc2)cc1 (stereo not shown)
EXPERIMENTAL READOUT: pIC50
MEAS VALUE: 9.00

---

We begin with a simple list: items and their reported pIC50.
- SYSTEM TESTED: human CaV3.2 (Homo sapiens, UniProt O95180)
- Sequence (O95180 whole entry): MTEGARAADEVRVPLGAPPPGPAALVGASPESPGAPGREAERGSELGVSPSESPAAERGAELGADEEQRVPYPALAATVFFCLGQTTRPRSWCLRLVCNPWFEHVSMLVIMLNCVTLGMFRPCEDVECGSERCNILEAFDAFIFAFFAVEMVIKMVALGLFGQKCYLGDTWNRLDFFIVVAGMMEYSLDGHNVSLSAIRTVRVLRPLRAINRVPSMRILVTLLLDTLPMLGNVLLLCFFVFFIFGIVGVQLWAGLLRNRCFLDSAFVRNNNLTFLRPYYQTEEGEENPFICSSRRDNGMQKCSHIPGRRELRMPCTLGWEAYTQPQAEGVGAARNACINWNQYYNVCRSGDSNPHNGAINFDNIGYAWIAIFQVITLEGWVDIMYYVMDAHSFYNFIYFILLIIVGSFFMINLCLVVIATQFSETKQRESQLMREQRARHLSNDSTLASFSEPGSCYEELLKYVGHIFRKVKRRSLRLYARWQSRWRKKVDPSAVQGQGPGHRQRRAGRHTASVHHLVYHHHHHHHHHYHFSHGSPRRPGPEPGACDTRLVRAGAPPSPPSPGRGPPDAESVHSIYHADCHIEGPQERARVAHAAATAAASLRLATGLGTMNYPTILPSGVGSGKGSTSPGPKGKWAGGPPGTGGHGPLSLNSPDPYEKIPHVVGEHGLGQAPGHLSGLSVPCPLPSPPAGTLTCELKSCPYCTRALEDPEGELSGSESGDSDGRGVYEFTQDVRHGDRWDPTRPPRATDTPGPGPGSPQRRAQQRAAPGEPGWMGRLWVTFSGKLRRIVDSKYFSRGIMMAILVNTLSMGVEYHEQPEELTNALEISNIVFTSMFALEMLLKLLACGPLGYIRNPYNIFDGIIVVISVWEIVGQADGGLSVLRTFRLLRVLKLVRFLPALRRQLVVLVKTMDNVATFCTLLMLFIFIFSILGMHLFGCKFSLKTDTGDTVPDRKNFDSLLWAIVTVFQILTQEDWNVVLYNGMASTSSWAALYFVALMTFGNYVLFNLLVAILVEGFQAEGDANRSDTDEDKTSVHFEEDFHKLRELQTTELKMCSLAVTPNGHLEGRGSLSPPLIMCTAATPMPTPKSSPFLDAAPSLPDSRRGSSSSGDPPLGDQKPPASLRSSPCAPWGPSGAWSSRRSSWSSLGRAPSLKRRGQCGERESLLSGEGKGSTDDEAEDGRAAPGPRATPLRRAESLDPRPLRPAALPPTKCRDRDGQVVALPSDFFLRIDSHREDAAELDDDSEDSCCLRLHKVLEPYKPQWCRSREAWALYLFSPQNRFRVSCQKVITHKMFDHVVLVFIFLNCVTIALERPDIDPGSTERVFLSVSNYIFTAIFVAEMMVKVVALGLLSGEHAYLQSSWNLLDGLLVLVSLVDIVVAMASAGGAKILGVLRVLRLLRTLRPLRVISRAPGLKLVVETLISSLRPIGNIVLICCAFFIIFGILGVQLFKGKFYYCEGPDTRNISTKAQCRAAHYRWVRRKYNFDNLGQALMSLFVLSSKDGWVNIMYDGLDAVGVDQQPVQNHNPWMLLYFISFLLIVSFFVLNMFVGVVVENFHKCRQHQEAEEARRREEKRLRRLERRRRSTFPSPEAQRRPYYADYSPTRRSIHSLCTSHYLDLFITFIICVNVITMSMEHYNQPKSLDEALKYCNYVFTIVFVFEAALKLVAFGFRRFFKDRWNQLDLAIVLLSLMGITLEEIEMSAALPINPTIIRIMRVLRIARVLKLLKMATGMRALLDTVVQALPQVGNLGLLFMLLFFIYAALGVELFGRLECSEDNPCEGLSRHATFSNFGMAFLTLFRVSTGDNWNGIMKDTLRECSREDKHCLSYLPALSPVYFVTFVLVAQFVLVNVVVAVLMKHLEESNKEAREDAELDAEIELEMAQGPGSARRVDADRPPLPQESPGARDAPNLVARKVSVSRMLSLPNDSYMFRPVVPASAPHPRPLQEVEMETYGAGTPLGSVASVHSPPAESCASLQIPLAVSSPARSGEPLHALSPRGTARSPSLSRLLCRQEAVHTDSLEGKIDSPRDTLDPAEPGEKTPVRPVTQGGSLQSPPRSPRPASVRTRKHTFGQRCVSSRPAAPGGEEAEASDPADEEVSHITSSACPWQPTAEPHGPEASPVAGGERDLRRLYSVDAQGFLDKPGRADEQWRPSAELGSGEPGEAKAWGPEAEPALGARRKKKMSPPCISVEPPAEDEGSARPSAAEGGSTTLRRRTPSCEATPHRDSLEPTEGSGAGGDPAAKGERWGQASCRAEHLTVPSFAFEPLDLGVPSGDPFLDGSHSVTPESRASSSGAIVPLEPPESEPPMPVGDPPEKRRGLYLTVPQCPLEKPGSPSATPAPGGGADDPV
- METHOD NOTES: IonWorks screen for hCaV3.2 (T-type calcium current, voltage clamp)
- STATED CONDITIONS: IonWorks HT, HEK cells, 10 min incubation, pulse 10, 8-point curve; read-out: IW hCav3 2 IC50
pIC50: −log10 of the molar value.
EXPERIMENTAL READOUT: pIC50

COMPOUND: CCC(C)[C@H](NC(=O)N1CCC2(CC1)C(=O)N(c1ccc(F)c(Cl)c1)C2c1ccc(-c2ccncc2)cn1)C(=O)OC (stereo partly shown)
EXPERIMENTAL READOUT: pIC50
MEAS VALUE: 6.20
--
COMPOUND: CC(NC(=O)N1CCC2(CC1)C(=O)N(c1cccc(F)c1)C2c1ccc(Cl)cc1)c1cccnc1 (stereo not shown)
EXPERIMENTAL READOUT: pIC50
MEAS VALUE: 5.61
--
COMPOUND: C[C@H](NC(=O)N1CCC2(CC1)C(=O)N(c1cncnc1)C2c1cccnc1)c1ccc(F)cc1 (stereo partly shown)
EXPERIMENTAL READOUT: pIC50
MEAS VALUE: 5.59
--
COMPOUND: C[C@@H](NC(=O)N1CCC2(CC1)C(=O)N(c1cccc(F)c1)C2c1ccc(Cl)cc1)c1ccc(F)cc1 (stereo partly shown)
EXPERIMENTAL READOUT: pIC50
MEAS VALUE: 6.17
--
COMPOUND: O=C(Nc1cccc(C(F)(F)F)c1)N1CCC2(CC1)C(=O)N(c1ccc(F)c(Cl)c1)C2c1ccccn1 (stereo not shown) [drawing 561]
EXPERIMENTAL READOUT: pIC50
MEAS VALUE: 7.08
--
COMPOUND: N#Cc1cccc(N2C(=O)C3(CCN(C(=O)Nc4cc(F)cc(F)c4)CC3)C2c2ccccn2)c1 (stereo not shown) [drawing 586]
EXPERIMENTAL READOUT: pIC50
MEAS VALUE: 6.61
--
COMPOUND: CC[C@H](C)[C@H](NC(=O)N1CCC2(CC1)C(=O)N(c1cccc(Cl)c1)C2c1cccnc1)C(=O)OC (stereo partly shown) [drawing 640]
EXPERIMENTAL READOUT: pIC50
MEAS VALUE: 6.06

---

The following molecules are listed with their measured IC50 values.
- SYSTEM TESTED: human CaV3.2 (Homo sapiens)
- METHOD NOTES: IonWorks screen for hCaV3.2 (T-type calcium current, voltage clamp)
- STATED CONDITIONS: IonWorks HT, HEK cells, 10 min incubation, pulse 10, 8-point curve; read-out: IW hCav3 2 IC50
EXPERIMENTAL READOUT: IC50

MOLECULE: C[C@H](NC(=O)N1CCC2(CC1)C(=O)N(c1cccc(F)c1)C2c1ccc(Cl)cc1)c1ccc(F)cc1 (stereo partly drawn)
EXPERIMENTAL READOUT: IC50
MEAS VALUE: 0.082 µM
--
MOLECULE: O=C(Nc1cccc(F)c1)N1CCC2(CC1)C(=O)N(c1ccc(F)c(Cl)c1)C2c1ccccn1 (stereo not drawn)
EXPERIMENTAL READOUT: IC50
MEAS VALUE: 0.371 µM
--
MOLECULE: O=C(NCc1ccccn1)N1CCC2(CC1)C(=O)N(c1cccc(F)c1)C2c1ccc(Cl)cc1 (stereo not drawn)
EXPERIMENTAL READOUT: IC50
MEAS VALUE: 1.33 µM
--
MOLECULE: O=C(Nc1cccc(Cl)c1)N1CCC2(CC1)C(=O)N(c1ccc(F)c(Cl)c1)C2c1ccccn1 (stereo not drawn)
EXPERIMENTAL READOUT: IC50
MEAS VALUE: 0.185 µM
--
MOLECULE: O=C(Nc1cc(F)cc(F)c1)N1CCC2(CC1)C(=O)N(c1cccc(Cl)c1)C2c1cccc[n+]1O (stereo not drawn)
EXPERIMENTAL READOUT: IC50
MEAS VALUE: 0.157 µM
--
MOLECULE: CC[C@H](C)[C@H](NC(=O)N1CCC2(CC1)C(=O)N(c1cccc(F)c1)C2c1ccc(Cl)cc1)C(N)=O (stereo partly drawn)
EXPERIMENTAL READOUT: IC50
MEAS VALUE: 0.965 µM

---

- SYSTEM TESTED: NPC1L1 (Rattus norvegicus, UniProt Q6T3U3)
pKi: −log10 of the molar value.

COMPOUND: O=C(Nc1c(Cl)cccc1Cl)N1CCC2(CC1)C(=O)N(c1ccc(F)cc1)C2c1ccc(Cl)cc1 (stereo not drawn)
SYSTEM TESTED: NPC1L1 (Rattus norvegicus, UniProt Q6T3U3)
pKi: 5.32
//
COMPOUND: O=C(Nc1c(Cl)cccc1Cl)N1CCC2(CC1)C(=O)N(c1ccccc1)C2c1ccccc1 (single isomer, unassigned) [drawing 667]
SYSTEM TESTED: NPC1L1 (Rattus norvegicus, UniProt Q6T3U3)
pKi: 4.74
//
COMPOUND: O=C(Nc1c(Cl)cccc1Cl)N1CCC2(CC1)C(=O)N(c1ccccc1)C2c1ccccc1 (single isomer, unassigned) [drawing 666]
SYSTEM TESTED: NPC1L1 (Rattus norvegicus, UniProt Q6T3U3)
pKi: 6.11

---

- SYSTEM TESTED: rat VR1 (Rattus norvegicus, UniProt O35433)
- Construct: expressed in transfected cells; host or cells: HEK293-TetOFF
- Sequence (O35433 whole entry): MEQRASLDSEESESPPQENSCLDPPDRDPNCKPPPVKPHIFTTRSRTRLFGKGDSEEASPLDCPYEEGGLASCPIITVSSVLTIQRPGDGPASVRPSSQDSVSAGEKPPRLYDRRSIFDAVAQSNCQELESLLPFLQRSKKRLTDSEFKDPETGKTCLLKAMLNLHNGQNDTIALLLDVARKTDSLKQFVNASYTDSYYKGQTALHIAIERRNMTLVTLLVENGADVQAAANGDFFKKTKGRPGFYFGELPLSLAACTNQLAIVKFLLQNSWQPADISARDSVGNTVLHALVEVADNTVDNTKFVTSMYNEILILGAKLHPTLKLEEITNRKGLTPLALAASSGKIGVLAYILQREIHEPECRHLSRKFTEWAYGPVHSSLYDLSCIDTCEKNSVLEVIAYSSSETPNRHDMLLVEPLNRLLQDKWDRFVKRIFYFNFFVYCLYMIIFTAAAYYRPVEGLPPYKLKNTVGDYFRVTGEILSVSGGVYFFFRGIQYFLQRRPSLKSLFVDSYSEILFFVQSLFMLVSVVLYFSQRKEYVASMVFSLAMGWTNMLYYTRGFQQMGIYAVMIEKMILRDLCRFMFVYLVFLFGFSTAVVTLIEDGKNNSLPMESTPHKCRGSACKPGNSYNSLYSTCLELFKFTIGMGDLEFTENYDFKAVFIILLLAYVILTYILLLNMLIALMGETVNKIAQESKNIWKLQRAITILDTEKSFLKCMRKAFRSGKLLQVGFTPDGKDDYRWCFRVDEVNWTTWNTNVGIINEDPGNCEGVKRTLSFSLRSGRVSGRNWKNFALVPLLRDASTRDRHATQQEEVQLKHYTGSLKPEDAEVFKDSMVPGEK
- METHOD NOTES: TRPV1 screening assay (FLIPR), rat VR1 % activation at single concentration
- Format: cell-based
- Source text: […]
EXPERIMENTAL READOUT: rat VR1 % activation @ 3.3 ug/ml compound (%)

COMPOUND: N#Cc1cccc(N2C(=O)C3(CCN(C(=O)Nc4cccc(C(F)(F)F)c4)CC3)C2c2ccccn2)c1 (centres unmarked) [drawing 663]
SYSTEM TESTED: rat VR1 (Rattus norvegicus, UniProt O35433)
UNITS: %
MEAS VALUE: 61
--
COMPOUND: O=C(Nc1cc(F)cc(F)c1)N1CCC2(CC1)C(=O)N(c1cccc(Cl)c1)C2c1cccnc1 (centres unmarked) [drawing 664]
SYSTEM TESTED: rat VR1 (Rattus norvegicus, UniProt O35433)
UNITS: %
MEAS VALUE: 75
--
COMPOUND: O=C(Nc1cccc(C(F)(F)F)c1)N1CCC2(CC1)C(=O)N(c1cncc(Cl)c1)C2c1ccccn1 (centres unmarked) [drawing 661]
SYSTEM TESTED: rat VR1 (Rattus norvegicus, UniProt O35433)
UNITS: %
MEAS VALUE: 61
--
COMPOUND: N#Cc1cc(F)cc(NC(=O)N2CCC3(CC2)C(=O)N(c2ccc(F)c(Cl)c2)C3c2ccccn2)c1 (centres unmarked) [drawing 662]
SYSTEM TESTED: rat VR1 (Rattus norvegicus, UniProt O35433)
UNITS: %
MEAS VALUE: 67
--
COMPOUND: O=C(Nc1cccc(C(F)(F)F)c1)N1CCC2(CC1)C(=O)N(c1ccc(F)c(Cl)c1)C2c1ccccn1 (centres unmarked) [drawing 660]
SYSTEM TESTED: rat VR1 (Rattus norvegicus, UniProt O35433)
UNITS: %
MEAS VALUE: 98

---

# reported IC50; entries follow
- SYSTEM TESTED: UniProt O95180
- METHOD NOTES: IonWorks screen for hCaV3.2 (T-type calcium current, voltage clamp)
- STATED CONDITIONS: IonWorks HT, HEK cells, 10 min incubation, pulse 10, 8-point curve; read-out: IW hCav3 2 IC50

COMPOUND: N#Cc1cc(F)cc(NC(=O)N2CCC3(CC2)C(=O)N(c2ccc(F)c(Cl)c2)C3c2ccccn2)c1 (centres unmarked) [drawing 565]
SYSTEM TESTED: UniProt O95180
IC50 / nM: 17.5
//
COMPOUND: CS(=O)(=O)c1ccccc1N1C(=O)C2(CCN(C(=O)Nc3cc(F)cc(F)c3)CC2)C1c1ccc(Cl)cc1 (centres unmarked)
SYSTEM TESTED: UniProt O95180
IC50 / nM: 94
//
COMPOUND: N#Cc1cccc(NC(=O)N2CCC3(CC2)C(=O)N(c2cccc(Cl)c2)C3c2cccnc2)c1 (centres unmarked) [drawing 643]
SYSTEM TESTED: UniProt O95180
IC50 / nM: 1660
//
COMPOUND: C[C@H](NC(=O)N1CCC2(CC1)C(=O)N(c1cccc(Cl)c1)C2c1cccnc1)c1ccc(F)cc1 (some centres unmarked) [drawing 611]
SYSTEM TESTED: UniProt O95180
IC50 / nM: 225
//
COMPOUND: CCC(C)[C@H](NC(=O)N1CCC2(CC1)C(=O)N(c1ccc(F)c(Cl)c1)C2c1ccc(Br)cn1)C(=O)OC (some centres unmarked)
SYSTEM TESTED: UniProt O95180
IC50 / nM: 100
//
COMPOUND: CC[C@H](NC(=O)N1CCC2(CC1)C(=O)N(c1cccc(F)c1)C2c1ccc(Cl)cc1)c1ccccc1 (some centres unmarked)
SYSTEM TESTED: UniProt O95180
IC50 / nM: 224
//
COMPOUND: O=C(Nc1cc(F)cc(F)c1)N1CCC2(CC1)C(=O)N(c1cccc(Cl)c1)C2c1cccnc1 (centres unmarked) [drawing 636]
SYSTEM TESTED: UniProt O95180
IC50 / nM: 420
//
COMPOUND: O=C(Nc1cc(F)cc(F)c1)N1CCC2(CC1)C(=O)N(c1cncc(Cl)c1)C2c1ccccn1 (centres unmarked)
SYSTEM TESTED: UniProt O95180
IC50 / nM: 518
